target: T1, Human CD47-C33G (human, UniProt Q08722 19-135); assay: SPR, IgG captured, CD47 in flow; exp 2;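 also: IgG from HEK293 cell supernatants tested by SPR on a BIAcore T200, C33G mutein prevents IgV homodimers for monovalent affinity, KD derived from association and dissociation rates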
T1 construct: also called CD47 mutein with C33G mutation
T1 sequence (Q08722 19-135 C33G limits assumed): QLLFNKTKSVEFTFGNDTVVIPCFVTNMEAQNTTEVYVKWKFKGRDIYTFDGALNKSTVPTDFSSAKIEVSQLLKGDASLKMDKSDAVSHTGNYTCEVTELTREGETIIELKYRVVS
Reported kon values follow for various binders
Report the figure in M⁻¹ s⁻¹ without appending any unit label.

chimeric antibody 108C10A6 (antibody, V domains shown, Chimeric antibody with mouse variable domains; captured through human Fc; also called VH / VL) VH: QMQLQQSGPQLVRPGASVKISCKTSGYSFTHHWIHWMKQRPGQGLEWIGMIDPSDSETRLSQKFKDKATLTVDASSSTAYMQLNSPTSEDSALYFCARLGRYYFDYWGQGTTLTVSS VL: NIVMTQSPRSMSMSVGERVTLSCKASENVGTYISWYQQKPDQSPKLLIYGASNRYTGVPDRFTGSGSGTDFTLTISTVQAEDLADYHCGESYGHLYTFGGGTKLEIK; 720000

Here is the next item to consider.
Exercise: Give the measured kon of 108VH5.M14 / 108VL1.M5 (antibody, human IgG4 S228P, kappa, V domains shown, Full-length IgG4 (S228P), kappa; also called VH5.M14 VL1.M5) VH: EVQLVQSGAEVKKPGASVKVSCKASGYTFTHHWIHWVRQAPGQGLEWMGMIDASDGETRYAQKFQGRVTMTRDTSTSTVYMELSSLRSEDTAVYYCARLGRYYFDYWGQGTLVTVSS VL: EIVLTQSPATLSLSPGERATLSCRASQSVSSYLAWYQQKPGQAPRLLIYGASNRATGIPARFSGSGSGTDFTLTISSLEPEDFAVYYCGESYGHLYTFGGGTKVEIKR .
Solution: 260000
